Values from PubChem BioAssay (NCATS)

biological target: Alpha-galactosidase A (Homo sapiens) (UniProt P06280); experiment: Counterscreen for Glucocerebrosidase Inhibitors: qHTS Assay for Human alpha-Galactosidase at pH 4.5 (AID 992); conditions: purified enzyme, fluorogenic substrate; series mostly up to 76.9 µM; further: 0% is about no effect
Sequence (P06280 whole entry, looked up): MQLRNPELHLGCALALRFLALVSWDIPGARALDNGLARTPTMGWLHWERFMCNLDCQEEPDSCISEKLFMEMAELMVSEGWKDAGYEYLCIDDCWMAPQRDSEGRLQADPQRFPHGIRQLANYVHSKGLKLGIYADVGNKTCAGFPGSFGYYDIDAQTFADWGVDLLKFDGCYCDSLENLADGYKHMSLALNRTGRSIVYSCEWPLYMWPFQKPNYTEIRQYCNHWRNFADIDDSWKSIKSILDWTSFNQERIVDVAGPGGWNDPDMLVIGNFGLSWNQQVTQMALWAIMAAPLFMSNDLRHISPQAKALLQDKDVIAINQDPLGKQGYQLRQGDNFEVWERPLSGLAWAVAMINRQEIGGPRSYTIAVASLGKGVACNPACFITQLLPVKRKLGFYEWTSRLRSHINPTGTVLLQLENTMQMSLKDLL
Active and inactive are the calls of the source. The call rests on the fitted dose curve; in most records, active means well fitted curve in the direction sought with a large enough effect; inactive means no such curve, though single readings can be large or run the other way.

item smiles	outcome
COc1ccc2[nH]c3c(c2c1)CCNC3	inactive
c1ccc2c(N3CCNCC3)cccc2c1	inactive
CCS(=O)(=O)Nc1cccc(C(=C2CCCCC2)c2cnc[nH]2)c1	inactive

###

assay: qHTS Assay for Lipid Storage Modulators (AID 1519); details: Drosophila S3 cells, BODIPY lipid droplet/cell ratio, laser cytometry; measured here: cell count channel max response; cells loaded with oleic acid
Inconclusive results are not listed.

molecule	max response, %
OCc1cnc[nH]1	7.21
NNC(=O)c1ccc(O)cc1	-17.6
OC1CCCCC1N1CCC(c2ccccc2)CC1 (stereo not drawn)	4.61
CCCN(CCC)CCc1ccc(O)c(O)c1	-7.51
CC(N)[C@H](O)c1ccc(O)c(O)c1 (stereo partly drawn)	1.77
CCCC(C)C1(CC)C(=O)NC(=O)NC1=O (stereo not drawn)	-11.5
O=C1CCO1	8.02
Oc1ccc2c3c1O[C@H]1c4oc5ccccc5c4C[C@@]4(O)C(C2)N(CC2CC2)CCC314 (stereo partly drawn)	69
NC(=O)COc1c(F)cc(SCCNS(=O)(=O)c2ccccc2)cc1F	1.68
C=CCN1CC[C@]23c4c5ccc(O)c4O[C@H]2/C(=N/NC(=O)c2ccccc2)CC[C@@]3(O)[C@H]1C5	-18.8
Clc1cc(I)cc(Cl)c1NC1=NCCN1	-25.7
CN1C2CCC1CC(OC(c1ccccc1)c1ccc(Cl)cc1)C2 (stereo not drawn)	-27.9
CCS(=O)(=O)Nc1cccc(C(=C2CCCCC2)c2cnc[nH]2)c1	56.8

###

target: Peroxisome proliferator-activated receptor alpha (Homo sapiens); experiment: qHTS assay for small molecule agonists of the peroxisome proliferator-activated receptor alpha (PPARalpha) signaling pathway (AID 651778); conditions: PathHunter PPARalpha complementation, chemiluminescence, 6 h; stronger effect = higher value; further: % of control where 0% means no effect
Examples of compounds with documented max response follow.

compound	study system	unit of measurement	max response
COCC(C)N(C(=O)CCl)c1c(C)csc1C (stereo not drawn)	Peroxisome proliferator-activated receptor alpha (Homo sapiens)	%	-3.83
CCCCCl	Peroxisome proliferator-activated receptor alpha (Homo sapiens)	%	-3.81
O=C1CCO1	Peroxisome proliferator-activated receptor alpha (Homo sapiens)	%	-1.17
Clc1ccccc1Cl	Peroxisome proliferator-activated receptor alpha (Homo sapiens)	%	-2.32
CC[C@H](C)[C@H]1O[C@]2(C=C[C@@H]1C)C[C@@H]1C[C@@H](C/C=C(\C)[C@@H](O[C@H]3C[C@H](OC)[C@@H](O[C@H]4C[C@H](OC)[C@@H](O)[C@H](C)O4)[C@H](C)O3)[C@@H](C)/C=C/C=C3\CO[C@@H]4[C@H](O)C(C)=C[C@@H](C(=O)O1)[C@]34O)O2	Peroxisome proliferator-activated receptor alpha (Homo sapiens)	%	7.18
C[CH2][Hg][S]c1ccccc1C(=O)O	Peroxisome proliferator-activated receptor alpha (Homo sapiens)	%	-9.74
O=C(NCNC(=O)NC1C(=O)NC(=O)N1CO)NC1C(=O)NC(=O)N1CO (stereo not drawn)	Peroxisome proliferator-activated receptor alpha (Homo sapiens)	%	-1.19
O=C1C[C@@H]2OCC=C3CN4CC[C@]56c7ccccc7N1[C@H]5[C@H]2[C@H]3C[C@H]46	Peroxisome proliferator-activated receptor alpha (Homo sapiens)	%	-1.11
O=C1C=CC(=O)C=C1	Peroxisome proliferator-activated receptor alpha (Homo sapiens)	%	-5.62
C[C@H]1CC[C@@H]2[C@@H](C)[C@H]3[C@H](C[C@H]4[C@@H]5CC=C6CC(O[C@@H]7O[C@H](CO)[C@H](O)[C@H](O[C@@H]8O[C@H](CO)[C@@H](O)[C@H](O)[C@H]8O)[C@H]7O[C@H]7O[C@@H](C)[C@H](O)[C@@H](O)[C@H]7O)CC[C@]6(C)[C@H]5CC[C@]34C)N2C1 (stereo partly drawn)	Peroxisome proliferator-activated receptor alpha (Homo sapiens)	%	-0.952
O=c1[nH]c(=O)n(Cl)c(=O)n1Cl	Peroxisome proliferator-activated receptor alpha (Homo sapiens)	%	3.21
O=[N+]([O-])C(Br)(CO)CO	Peroxisome proliferator-activated receptor alpha (Homo sapiens)	%	0.217
[Cl-].[Cl-].[Hg+2]	Peroxisome proliferator-activated receptor alpha (Homo sapiens)	%	-13.7
CCCSP(=O)(OCC)SCCC	Peroxisome proliferator-activated receptor alpha (Homo sapiens)	%	0.388
O=[N+]([O-])c1ccc(F)c([N+](=O)[O-])c1	Peroxisome proliferator-activated receptor alpha (Homo sapiens)	%	-10.2
O=Cc1ccco1	Peroxisome proliferator-activated receptor alpha (Homo sapiens)	%	-1.43
ClCC1CO1 (stereo not drawn)	Peroxisome proliferator-activated receptor alpha (Homo sapiens)	%	-4.69
COc1ccc2c(c1OC)C(=O)OC2C1c2cc3c(cc2CCN1C)OCO3 (stereo not drawn)	Peroxisome proliferator-activated receptor alpha (Homo sapiens)	%	-0.464
CC(C)Nc1ccc(Nc2ccccc2)cc1	Peroxisome proliferator-activated receptor alpha (Homo sapiens)	%	-3.2
COC1=CC(=O)O[C@@H](/C=C/c2ccccc2)C1	Peroxisome proliferator-activated receptor alpha (Homo sapiens)	%	-0.906
C[C@H]1CCC[C@H](O)CCCCCc2cc(O)cc(O)c2C(=O)O1	Peroxisome proliferator-activated receptor alpha (Homo sapiens)	%	-2.71
NNC(N)=O	Peroxisome proliferator-activated receptor alpha (Homo sapiens)	%	-2.31
C#CCN1CC(=O)N(COC(=O)C2C(C=C(C)C)C2(C)C)C1=O (stereo not drawn)	Peroxisome proliferator-activated receptor alpha (Homo sapiens)	%	0.547
